These measurements were taken from patent US9290427B2.

Entries annotated with measured Actual class
# Tested on: MCF-7/6 mammary carcinoma cells
# Protocol: chick heart invasion assay
# Format: cell-based, human
# Design: unit not given here
# Test Parameters: training set compounds 37-51; class = log cmin, lowest concentration with invasion grade I or II

The cases that follow already have their Actual class on record.
COc1cc(OC)c(/C=C/C(=O)c2c(OC)cccc2OC)c(OC)c1 [Compound 47] = 0 (about 1)
COc1cc(OC)c(OC)cc1/C=C/C(=O)c1c(OC)cccc1OC [Compound 46] = 1 (about 10)
COc1ccc(C(=O)/C=C/c2cccc(OC)c2)cc1 [Compound 41] = 0 (about 1)

## Task Look at this molecule and give its reported Actual class. COc1cc(OC)c(C(=O)/C=C/c2cc(OC)c(OC)cc2OC)c(OC)c1 [Compound 42]
## Result 1 (about 10)

## Task Do the same for COc1ccc(C(=O)/C=C/c2c(OC)cc(OC)cc2OC)cc1 [Compound 45] please
## Result −1 (about 0.1)

## Task Do the same for COc1ccc(C(=O)/C=C/c2ccccc2)cc1 [Compound 38] please
## Result 1 (about 10)

## Task Do the same for COc1ccc(C(=O)/C=C/c2ccc(F)cc2)cc1 [Compound 48] please
## Result 0 (about 1)

## Task Do the same for COc1ccc(/C=C/C(=O)c2ccccc2)cc1 [Compound 39] please
## Result 1 (about 10)

## Task Do the same for COc1ccc(/C=C/C(=O)c2ccc(OC)cc2)cc1 [Compound 40] please
## Result 1 (about 10)

## Task Do the same for COc1cc(C(=O)/C=C/c2ccc(F)cc2)cc(OC)c1OC [Compound 49] please
## Result −2 (about 0.01)

## Task Do the same for COc1ccc(C(=O)/C=C/c2cc(OC)c(OC)cc2OC)cc1 [Compound 44] please
## Result 0 (about 1)

## Task Do the same for O=C(/C=C/c1ccc(F)cc1)c1ccc(F)cc1 [Compound 50] please
## Result 1 (about 10)

----------
# Tested on: MCF-7/6 mammary carcinoma cells
# Protocol: chick heart invasion assay
# Format: cell-based, human
# Parameters: unit not given here
# Test Parameters: validation set, in vitro
Recorded Metric: anti-invasive activity class act.

The cases that follow already have their anti-invasive activity class act. on record.
O=C(C=Cc1ccco1)c1ccco1 = −1 (about 0.1)
COc1ccc(C(=O)/C=C/c2ccccc2F)cc1 = 1 (about 10)
O=C(C=Cc1ccc(F)cc1)c1ccco1 = 1 (about 10)

## Task Look at this molecule and give its reported anti-invasive activity class act.. O=C(/C=C/c1cccc(F)c1)c1ccc(F)cc1
## Result −1 (about 0.1)

----------
Entries annotated with measured anti-invasive activity class act.
# Tested on: MCF-7/6 mammary carcinoma cells
# Protocol: chick heart invasion assay
# Assay type: cell-based, human
# Set-up: unit not given here
# Test Parameters: validation set, in vitro

COc1ccc(C(=O)/C=C/c2cccc(F)c2)cc1 = 1 (about 10)

## Task Look at this molecule and give its reported anti-invasive activity class act.. O=C(/C=C/c1cc2ccccc2o1)c1ccc(F)cc1
## Result 2 (about 100)
